# assayed_system: SARS-CoV-2 main protease (Mpro) (Severe acute respiratory syndrome coronavirus 2, UniProt P0DTD1)
# experiment_description: biochemical
# test_settings: Table 2; read-out: Enzyme IC50
value_type: pIC50
pIC50 here is simply -log10 of the concentration when that concentration is written in mol/L.

In the examples that follow, each entry is paired with its recorded pIC50.
O=C(c1cncc(F)c1)N1CCN(C2c3ccccc3CCc3ccccc32)CC1 [ZS-318] :: 6.82
O=C(c1cccnc1)N1CCN(C(c2ccc(F)cc2)c2ccc(F)cc2)CC1 [AA-598] :: 5.72
Cc1cncc(C(=O)N2CCC(=C(c3ccccc3)c3cccc(F)c3)CC2)c1 [MKP-1360] :: 7.46
O=C(c1cncc(Cl)c1)N1CCN(C(c2ccccc2)c2ccccc2)CC1 [AA-591] :: 6.52
O=C(c1cccnc1)N1CCN(C(c2ccccc2)c2ccsc2)CC1 (stereo not drawn) [MKP-1215] :: 5.35

Item Cc1cncc(C(=O)N2CCN(C(c3ccccc3)c3cccc(Cl)c3)CC2)c1 (stereo not drawn) [MKP-1272] : provide pIC50
6.44

Report measured pIC50; entry is Cc1cncc(C(=O)N2CCC(=C(c3ccccc3)c3ccncc3)CC2)c1 [MKP-1398]
6.24

Respond only with pIC50 recorded for O=C(c1cncc(Br)c1)N1CCC(C(O)(c2ccccc2)c2ccccc2)CC1 [NZ-770]
6.42

Given the compound O=C(c1cnccc1Cl)N1CCN(C2c3ccccc3CCc3ccccc32)CC1 [ZS-331] , write its reported pIC50.
6.43

Check the records and state pIC50 for O=C(c1cncc2cc[nH]c12)N1CCC(=C(c2cccc(F)c2)c2cccc(F)c2)CC1 [MKP-1355]
7.55

Consider the compound O=C(c1cncc(C(F)(F)F)c1)N1CCN(C(c2ccccc2)c2cccnc2)CC1 (stereo not drawn) [MKP-1195] . State its measured pIC50.
5.57

Indicate its recorded pIC50; the compound in question is Nc1cncc(C(=O)N2CCN(C3c4ccccc4CCc4ccccc43)CC2)c1 [ZS-342]
6.82

Tell us which pIC50 value is on record for Cc1cncc(C(=O)N2CCC(=C(c3cccc(O)c3)c3cccc(O)c3)CC2)c1 [MKP-1381]
7.03

Tell us which pIC50 value is on record for O=C(c1cncc([N+](=O)[O-])c1)N1CCN(C2c3ccccc3CCc3ccccc32)CC1 [ZS-339]
5.94

Note down pIC50 recorded for Cc1cncc(C(=O)N2CCN(C(c3ccc(F)cc3)c3ccccc3F)CC2)c1 (stereo not drawn) [MKP-1277]
6.82

Entry O=C(c1cncc(Cl)c1)N1CCN(C(c2ccccc2)c2ccsc2)CC1 (stereo not drawn) [MKP-1221] needs its pIC50 filled in; supply it.
6.48

State its pIC50: O=C(c1cncnc1)N1CCN(C(c2ccccc2)c2ccccc2)CC1 [AA-577]
5.08
